All figures here come from the supplement of paper PMC8728848.

target: Man(a1-2)Man(a1-2)Man(a1-6)[Man(a1-3)]Man; experiment: glycan array binding signal (z-score within array); higher = stronger binding; conditions: glycan notation: IUPAC condensed, linker removed
The entries come from a sample that favours the strongest signals as a whole.
# glycan array binding signal (z-score) per record follows

Previously resolved entries follow.
[
  {
    "Binder": "STA (Solanum tuberosum) (protein) NASAPLPYPQCGLKKGGGKCIKTGECCSIWGWCGTTSDYCAPGYCQKQCPGPYPQGRCGWQANGKSCPTGTGQCCSNAGWCGTTSDYCAPNNCQSQCKLPPPPPSPPPPPPSPPPPSPPPPPPSPPPPSPSPPPPPPSPPPPSPPPPSPPPPSPPPPPSPSPPPPPPSPPPPPPPLPYPQCGMKKGGGKCIKTGECCSIWGWCGTTSKYCSPGYCQMQCPDPYPEGRCGWQANGKSCPTGTGQCCSNAGWCGTTSAYCAPVNCQAQCNTTTLTSPIKNRMRGIESFMLNVV",
    "glycan array binding signal (z-score)": -0.506
  },
  {
    "Binder": "ASAL (Allium sativum), P83886 (protein) MGRTTSSPKAMMRIATVAAILTILASTCMARNVLTNGEGLYAGQSLDVEQYKFIMQDDCNLVLYEYSTPIWASNTGVTGKNGCRAVMQRDGNFVVYDVNGRPVWASNSVRGNGNYILVLQKDRNVVIYGSDIWSTGTYRRSVGGAVVMAMNGTVDGGSVIGPVVVNQNVTAAIRKVGTGAA",
    "glycan array binding signal (z-score)": 2.53
  }
]

Shift focus to the following entry.
ERGIC1-EDTA (Homo sapiens), Q969X5 (protein) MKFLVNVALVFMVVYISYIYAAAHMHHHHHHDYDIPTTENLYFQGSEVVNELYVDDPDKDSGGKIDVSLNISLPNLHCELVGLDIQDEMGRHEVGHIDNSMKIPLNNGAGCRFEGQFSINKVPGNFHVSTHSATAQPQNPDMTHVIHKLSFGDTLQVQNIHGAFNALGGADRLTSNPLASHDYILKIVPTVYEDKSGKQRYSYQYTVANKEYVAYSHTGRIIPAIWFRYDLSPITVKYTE yielded glycan array binding signal (z-score) of -0.459
